- Measurement Notes: activity coefficient (dimensionless); of the first substance listed, at infinite dilution; xn = mol fraction of the nth substance listed
- Experimental Parameters: 333.15 K; 101.33 kPa; Liquid; Chromatography; x1 = 0
activity coefficient for assorted molecules
Please state the value as a number alone, without comment.

Examples with answers:
# Molecule, activity coefficient
records = [
    ("CCCCCCCC [octane] + CCCCCCCCn1cc[n+](C)c1C.O=S(=O)([N-]S(=O)(=O)C(F)(F)F)C(F)(F)F", 8.12),
    ("C1COCCO1 [1,4-dioxane] + CCCCCCCCn1cc[n+](C)c1C.O=S(=O)([N-]S(=O)(=O)C(F)(F)F)C(F)(F)F", 0.51),
    ("Cc1ccccc1C [1,2-dimethylbenzene] + CCCCCCCCn1cc[n+](C)c1C.O=S(=O)([N-]S(=O)(=O)C(F)(F)F)C(F)(F)F", 1.02),
    ("CCOC(C)=O [ethyl acetate] + CCCCCCCCn1cc[n+](C)c1C.O=S(=O)([N-]S(=O)(=O)C(F)(F)F)C(F)(F)F", 0.61),
    ("CCCO [propan-1-ol] + CCCCCCCCn1cc[n+](C)c1C.O=S(=O)([N-]S(=O)(=O)C(F)(F)F)C(F)(F)F", 1.42),
    ("C=CCCCC [hex-1-ene] + CCCCCCCCn1cc[n+](C)c1C.O=S(=O)([N-]S(=O)(=O)C(F)(F)F)C(F)(F)F", 3.65),
]

Task: Give a short answer stating reported activity coefficient for Cc1ccc(C)cc1 [1,4-dimethylbenzene] + CCCCCCCCn1cc[n+](C)c1C.O=S(=O)([N-]S(=O)(=O)C(F)(F)F)C(F)(F)F .
Output: 1.06

---

- Measurement Notes: activity coefficient (dimensionless); of the first substance listed, at infinite dilution; xn = mol fraction of the nth substance listed
- Experimental Parameters: 323.15 K; 101.33 kPa; Liquid; Chromatography; x1 = 0
1.0 if activity coefficient is below 2. 0.0 if not; exact matches included in 0.0.

Some solved entries appear below for comparison.
# Molecule, Class Name
rows = [
    ("CCC(C)O (configuration not stated) [butan-2-ol] + CCCCCCCCn1cc[n+](C)c1C.O=S(=O)([N-]S(=O)(=O)C(F)(F)F)C(F)(F)F", 1.0),
    ("CCCCCO [pentan-1-ol] + CCCCCCCCn1cc[n+](C)c1C.O=S(=O)([N-]S(=O)(=O)C(F)(F)F)C(F)(F)F", 0.0),
    ("CO [methanol] + CCCCCCCCn1cc[n+](C)c1C.O=S(=O)([N-]S(=O)(=O)C(F)(F)F)C(F)(F)F", 1.0),
]

Task: API: query returns whether the molecule falls strictly under 2 in activity coefficient. Query: CCCCCC [hexane] + CCCCCCCCn1cc[n+](C)c1C.O=S(=O)([N-]S(=O)(=O)C(F)(F)F)C(F)(F)F
Output: 0.0

Task: Dear colleague, could you confirm whether activity coefficient of CCCCCCC [heptane] + CCCCCCCCn1cc[n+](C)c1C.O=S(=O)([N-]S(=O)(=O)C(F)(F)F)C(F)(F)F falls below 2? Thanks.
Output: 0.0

Task: Criterion: activity coefficient strictly below 2. Is it met by C1CCCCC1 [cyclohexane] + CCCCCCCCn1cc[n+](C)c1C.O=S(=O)([N-]S(=O)(=O)C(F)(F)F)C(F)(F)F ?
Output: 0.0

---

- Measurement Notes: activity coefficient (dimensionless); of the first substance listed, at infinite dilution; xn = mol fraction of the nth substance listed
- Experimental Parameters: 313.15 K; 101.33 kPa; Liquid; Chromatography; x1 = 0
// reported activity coefficient per item
Give the figure by itself; no unit, no explanation.

Examples with their reported activity coefficient follow.
# Compound, Value Kind, Reported Value
measured = [
    ("CC(C)=O [acetone] + CCCCCCCCn1cc[n+](C)c1C.O=S(=O)([N-]S(=O)(=O)C(F)(F)F)C(F)(F)F", "activity coefficient", 0.46),
    ("CC1CCCCC1 [methylcyclohexane] + CCCCCCCCn1cc[n+](C)c1C.O=S(=O)([N-]S(=O)(=O)C(F)(F)F)C(F)(F)F", "activity coefficient", 5.67),
    ("ClCCl [dichloromethane] + CCCCCCCCn1cc[n+](C)c1C.O=S(=O)([N-]S(=O)(=O)C(F)(F)F)C(F)(F)F", "activity coefficient", 0.82),
    ("CC(C)CO [2-methyl-1-propanol] + CCCCCCCCn1cc[n+](C)c1C.O=S(=O)([N-]S(=O)(=O)C(F)(F)F)C(F)(F)F", "activity coefficient", 2.21),
]

Task: Answer with reported activity coefficient of CC#N [acetonitrile] + CCCCCCCCn1cc[n+](C)c1C.O=S(=O)([N-]S(=O)(=O)C(F)(F)F)C(F)(F)F
Output: 0.51

Task: Given C1COCCO1 [1,4-dioxane] + CCCCCCCCn1cc[n+](C)c1C.O=S(=O)([N-]S(=O)(=O)C(F)(F)F)C(F)(F)F , respond with its activity coefficient.
Output: 0.64

Task: Please list activity coefficient recorded for the compound CCCCCC [hexane] + CCCCCCCCn1cc[n+](C)c1C.O=S(=O)([N-]S(=O)(=O)C(F)(F)F)C(F)(F)F
Output: 7.89

---

- Measurement Notes: activity coefficient (dimensionless); of the first substance listed, at infinite dilution; xn = mol fraction of the nth substance listed
- Experimental Parameters: 313.15 K; 101.33 kPa; Liquid; Chromatography; x1 = 0
Value Kind: activity coefficient
Output spec: single numeric token, no unit.

Consider the worked cases shown below.
# Compound, activity coefficient
measured = [
    ("CCCCCCCC [octane] + CCCCCCCCn1cc[n+](C)c1C.O=S(=O)([N-]S(=O)(=O)C(F)(F)F)C(F)(F)F", 11.1),
    ("CCCO [propan-1-ol] + CCCCCCCCn1cc[n+](C)c1C.O=S(=O)([N-]S(=O)(=O)C(F)(F)F)C(F)(F)F", 1.94),
    ("CCCCO [butan-1-ol] + CCCCCCCCn1cc[n+](C)c1C.O=S(=O)([N-]S(=O)(=O)C(F)(F)F)C(F)(F)F", 2.31),
    ("CCOC(C)=O [ethyl acetate] + CCCCCCCCn1cc[n+](C)c1C.O=S(=O)([N-]S(=O)(=O)C(F)(F)F)C(F)(F)F", 0.74),
]

# ---- query compound ----
Task: Specify reported activity coefficient for the compound shown: ClC(Cl)Cl [trichloromethane] + CCCCCCCCn1cc[n+](C)c1C.O=S(=O)([N-]S(=O)(=O)C(F)(F)F)C(F)(F)F
Output: 0.77

---

- Measurement Notes: activity coefficient (dimensionless); of the first substance listed, at infinite dilution; xn = mol fraction of the nth substance listed
- Experimental Parameters: 333.15 K; 101.33 kPa; Liquid; Chromatography; x1 = 0
Overview of reported activity coefficient across a group of compounds:
Please reply with the value in numeric form only.

Example compounds with recorded activity coefficient:
# Compound, activity coefficient
measured = [
    ("Cc1cccc(C)c1 [1,3-dimethylbenzene] + CCCCCCCCn1cc[n+](C)c1C.O=S(=O)([N-]S(=O)(=O)C(F)(F)F)C(F)(F)F", 1.1),
    ("CCCCCCCCCC [decane] + CCCCCCCCn1cc[n+](C)c1C.O=S(=O)([N-]S(=O)(=O)C(F)(F)F)C(F)(F)F", 13.5),
    ("ClC(Cl)Cl [trichloromethane] + CCCCCCCCn1cc[n+](C)c1C.O=S(=O)([N-]S(=O)(=O)C(F)(F)F)C(F)(F)F", 0.65),
    ("CCc1ccccc1 [ethylbenzene] + CCCCCCCCn1cc[n+](C)c1C.O=S(=O)([N-]S(=O)(=O)C(F)(F)F)C(F)(F)F", 1.2),
    ("CC(C)CCO [3-methylbutan-1-ol] + CCCCCCCCn1cc[n+](C)c1C.O=S(=O)([N-]S(=O)(=O)C(F)(F)F)C(F)(F)F", 1.79),
]

Consider the record given below.
Task: Identify measured activity coefficient associated with ClC(Cl)(Cl)Cl [tetrachloromethane] + CCCCCCCCn1cc[n+](C)c1C.O=S(=O)([N-]S(=O)(=O)C(F)(F)F)C(F)(F)F
Output: 1.57

---

Attribute: activity coefficient
- Measurement Notes: activity coefficient (dimensionless); of the first substance listed, at infinite dilution; xn = mol fraction of the nth substance listed
- Experimental Parameters: 313.15 K; 101.33 kPa; Liquid; Chromatography; x1 = 0

# Compound, activity coefficient
rows = [
    ("c1ccccc1 [benzene] + CCCCCCCCn1cc[n+](C)c1C.O=S(=O)([N-]S(=O)(=O)C(F)(F)F)C(F)(F)F", 0.81),
    ("CCCCCCC [heptane] + CCCCCCCCn1cc[n+](C)c1C.O=S(=O)([N-]S(=O)(=O)C(F)(F)F)C(F)(F)F", 8.82),
    ("Cc1cccc(C)c1 [1,3-dimethylbenzene] + CCCCCCCCn1cc[n+](C)c1C.O=S(=O)([N-]S(=O)(=O)C(F)(F)F)C(F)(F)F", 1.18),
]

Task: Identify measured activity coefficient associated with Cc1ccccc1C [1,2-dimethylbenzene] + CCCCCCCCn1cc[n+](C)c1C.O=S(=O)([N-]S(=O)(=O)C(F)(F)F)C(F)(F)F
Output: 1.15

Task: Report measured activity coefficient; entry is Cc1ccccc1 [toluene] + CCCCCCCCn1cc[n+](C)c1C.O=S(=O)([N-]S(=O)(=O)C(F)(F)F)C(F)(F)F
Output: 1.03

Task: Look up and report measured activity coefficient for this entry: CC(C)CCO [3-methylbutan-1-ol] + CCCCCCCCn1cc[n+](C)c1C.O=S(=O)([N-]S(=O)(=O)C(F)(F)F)C(F)(F)F
Output: 2.46

Task: Give the reported value of activity coefficient for this record: CC(C)O [propan-2-ol] + CCCCCCCCn1cc[n+](C)c1C.O=S(=O)([N-]S(=O)(=O)C(F)(F)F)C(F)(F)F
Output: 2.13
